tested on: E. coli (NCTC 10418); assay type: cell-based
Bridge positions count the residues as written; N and C are the ends. Peptide text beside a SMILES is read from it.
propertyName: MIC (µM)
Numbers only; they are read as µM.

compound	obsValue
N=C(N)NCCC[C@H](NC(=O)[C@H](CCCNC(=N)N)NC(=O)[C@H](CCCNC(=N)N)NC(=O)[C@H](CCC(N)=O)NC(=O)[C@H](CCCNC(=N)N)NC(=O)[C@H](CCCNC(=N)N)NC(=O)[C@H](CCCCN)NC(=O)[C@H](CCCCN)NC(=O)[C@@H](N)CCCNC(=N)N)C(=O)O [Tat, reference compound]	256

Exam item: Fill in the blank: the reported MIC of CC[C@H](C)[C@@H]1NC(=O)[C@H](CO)NC(=O)[C@H](CCCCN)NC(=O)[C@H]([C@@H](C)O)NC(=O)[C@H](Cc2c[nH]c3ccccc23)NC(=O)[C@@H](NC(=O)CNC(=O)[C@H](CCCNC(=N)N)NC(=O)[C@H](CC(C)C)NC(=O)[C@H](C)N)CSSC[C@@H](C(=O)N[C@@H](CCCCN)C(N)=O)NC(=O)[C@@H]2CCCN2C(=O)[C@H](CCCCN)NC(=O)[C@@H]2CCCN2C(=O)[C@@H]2CCCN2C1=O [K^16-PPF-BBI] (H-ALRGCWTKSIPPKPCK-NH2; disulfide 5-15) is ____.
Marked response: 128

Exam item: Fill in the blank: the reported MIC of CC[C@H](C)[C@@H]1NC(=O)[C@H](CO)NC(=O)[C@H](CCCCN)NC(=O)[C@H]([C@@H](C)O)NC(=O)[C@H](Cc2c[nH]c3ccccc23)NC(=O)[C@@H](NC(=O)CNC(=O)[C@H](CCCNC(=N)N)NC(=O)[C@H](CC(C)C)NC(=O)[C@H](C)N)CSSC[C@@H](C(=O)N2CCC[C@H]2C(N)=O)NC(=O)[C@@H]2CCCN2C(=O)[C@H](CCCCN)NC(=O)[C@@H]2CCCN2C(=O)[C@@H]2CCCN2C1=O [PPF-BBI] (H-ALRGCWTKSIPPKPCP-NH2; disulfide 5-15) is ____.
Marked response: 128
